Test system: DU-145
methodNotes: NCI tumour cell line growth inhibition, 48 h
Activity calls are given as the source filed them. No stated cut-off is given here; in the data, active = GI50 up to about 1.1 µM and inactive = higher.
Pick one and only one: 1 (active), 0 (inactive)

{"molecule": "C/C1=C\\[C@@H](O)C(=O)/C=C/C=C\\c2csc(n2)[C@@H](C)NC(=O)C[C@@]2(CC1)[S+]([O-])SC(=O)[C@]2(C)O (stereo not given in full)", "className": 1}
{"molecule": "Cc1sc2nc3n(sc4nc5sc(C)c(C)c5c(=O)n43)c(=O)c2c1C", "className": 0}
{"molecule": "COc1ccc2nc3c([N+](=O)[O-])ccc(NCCCN(C)C)c3c(N)c2c1", "className": 0}
{"molecule": "CCOc1nc(-c2ccccc2)cc(-c2ccc(N3CCOCC3)cc2)c1C#N", "className": 0}
{"molecule": "O=C(O)C(/C=C/c1ccccc1)c1ccccc1 (stereo not given)", "className": 0}
{"molecule": "CC#CC#C/C(=C/C=CC(=O)OC)SC", "className": 0}
{"molecule": "O=[N+]([O-])c1ccc(/C=C/c2cc(-c3ccccc3)nc3ccc4ccccc4c23)cc1", "className": 0}
{"molecule": "CC(O)c1cc2c(s1)C(=O)c1c(C(C)O)csc1C2=O (stereo not given)", "className": 1}
{"molecule": "CC(C)=CC[C@]12CCN[C@H]1N(S(=O)(=O)c1ccccc1)c1ccccc12", "className": 0}

// next entry
Task: Query: recorded result category for CCOC(=O)CCc1cc(=O)oc2cc(O)cc(O)c12 in this test
Result: 0

----------
Test system: RXF 631
methodNotes: NCI tumour cell line growth inhibition, 48 h
The source made the active and inactive calls. Rule as the data show it: active = GI50 up to about 1.1 µM and inactive = higher.
Provide the reported GI50 of each item.

{"compound": "N#C/C(=C\\c1cc(OCc2ccccc2)c(OCc2ccccc2)cn1)C(N)=O", "result": "> 100 µM (inactive)"}
{"compound": "O=C1c2ccccc2C(=O)N1CC#CCO", "result": "> 100 µM (inactive)"}
{"compound": "N#Cc1cccc(N2C(=O)C3C4C=CC(C3C2=O)C2C(=O)N(c3cccc(C#N)c3)C(=O)C42)c1 (stereo not given)", "result": "24.7 µM (inactive)"}
{"compound": "O=C(NCCCC/N=c1/cccccc1NCCCCNC(=O)OCc1ccccc1)OCc1ccccc1", "result": "13.3 µM (inactive)"}

# batch size: 6; output GI50 per entry
1. COc1cccc(C(=O)N2CCc3ccccc32)c1OC
2. C/C1=C/C2OC(=O)C3(C)C2C(CC2(C)OC1=CC2=O)OC3(O)C(C)C (stereo not given)
3. OCC1OC2c3ccccc3COC2C1OCc1ccccc1 (stereo not given)
4. CSC[S+]([O-])C[C@H](CO)NC(=O)/C=C/c1c(C)[nH]c(=O)[nH]c1=O (stereo not given in full)
5. CCN(CC)CCNc1ccc2ncn3c4cc(O)ccc4c(=O)c1c23
6. COc1ccc2ccc3c(c2c1)CN1CCc2cc(OC)c(OC)cc2C1C3 (stereo not given)

Result:
58.5 µM (inactive)
33.1 µM (inactive)
> 100 µM (inactive)
2.58 µM (inactive)
2.1 µM (inactive)
> 100 µM (inactive)

----------
Test system: HCT-116
methodNotes: NCI tumour cell line growth inhibition, 48 h
Active and inactive are the calls of the source. Cut-off read from the data, not from the text of the source: active = GI50 up to about 1.1 µM and inactive = higher.
API: response.call in active, inactive

{"molecule": "Cc1csc(NC23CC4CC(CC(C4)C2)C3)[n+]1C(P(=O)([O-])O)P(=O)(O)O (stereo unspecified)", "className": "inactive"}
{"molecule": "ClC1=NSSC1(Cl)Cl", "className": "inactive"}
{"molecule": "O=C1N[C@@H](c2c[nH]c3cc(Br)ccc23)C(=O)N[C@H]1c1c[nH]c2cc(Br)ccc12", "className": "inactive"}
{"molecule": "NC1CC(=O)c2c(Br)csc21 (stereo unspecified)", "className": "inactive"}
{"molecule": "Cc1c(Cl)c(S(N)(=O)=O)cc2c1N=CNS2(=O)=O", "className": "inactive"}

Task: Recorded test call requested for CC#CC#C/C(=C/C=CC(=O)OC)SC
Result: inactive

Task: Outcome? CN(C)c1ccc(/C=C(/C(=O)O)c2csc(-c3nc(/C(=C\c4ccc(N(C)C)cc4)C(=O)O)cs3)n2)cc1
Result: inactive

Task: How was Cc1ccc(S(=O)(=O)NC(=O)NC(C(=O)O)C(C)C)cc1 (stereo unspecified) classified in this test?
Result: inactive
